Reference source for all entries: patent US20240034792A1

Target: T1, Cynomolgus monkey PD-1 expressed on CHO-K1 cells (CHO-K1/cyno PD-1) (cynomolgus monkey, UniProt B0LAJ3 25-288)
T1 construct: also called CHO-K1 cells overexpressing cynomolgus monkey PD-1
T1 sequence (B0LAJ3 entry or part of it limits assumed): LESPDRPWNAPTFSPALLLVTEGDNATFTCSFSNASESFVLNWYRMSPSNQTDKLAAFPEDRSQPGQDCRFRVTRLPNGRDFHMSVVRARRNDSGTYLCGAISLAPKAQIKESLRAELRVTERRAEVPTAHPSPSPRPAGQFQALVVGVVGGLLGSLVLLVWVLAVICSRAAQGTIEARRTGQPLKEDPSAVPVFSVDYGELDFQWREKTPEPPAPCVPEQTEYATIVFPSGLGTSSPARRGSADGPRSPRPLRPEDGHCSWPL
Experiment: FACS, CHO-K1/cyno PD-1 cells
Experimental: In order to investigate the in vitro binding activity of the PD-1 antigen-binding proteins to human/cynomolgus monkey PD-1, the binding assay at the cellular level was performed using a CHO-K1 cell strain overexpressing human or cynomolgus monkey PD-1 (CHO-K1/hPD-1 or CHO-K1/cyno PD-1, from GenScript). […] Finally, the cells in each well were resuspended in 200 μL of pre-cooled PBS, and the fluorescence signal values were read using a BD FACS CANTOII.
Attribute: MFI Maximum
A bare number is all that is needed in reply.

binder	parameter_measured	recorded_number
PR000674 (antibody, human IgG4 S228P, kappa, V domains shown, Fully human recombinant H2L2 antibody, human IgG4, kappa light chain; also called 4004_12H9C1) VH: QVQLVESGGGVVQPGKSLRLSCTVSGLTFSDNGMHWVRQAPGRGLEWMSVIWYDGSKKYYADSVKGRFTISRDNSKNTLYLQMNNMRVEDTAVYYCATNSDYWGQGTLVTVSS VL: EIVLTQSPATLSLSPGERATLSCRASQSVSSYLAWYQQKPGQAPRLLIYDTSKRATGIPARFSGSGSGTDFTLTISSLEPEDFAVYYCQQHNNWIFTFGPGTKVDIKR	MFI Maximum	41200

Please turn your attention to the following entry.
Input: State the recorded MFI Maximum for this entry: PR000676 (antibody, human IgG4 S228P, kappa, V domains shown, Fully human recombinant H2L2 antibody, human IgG4, kappa light chain; also called 4004_1A7A1) VH: QIQLVESGGGVVQPGRSLRLSCAASGFTLSSYGMHWVRQAPGKGLEWVAVILSDGSNKYYADSVKGRFTISRDNSKNTLYLQMNSLRAEDTAVYYCADLGGDVWGQGTTVTVSS VL: EIVLTQSPATLSLSPGERATLSCRASQSVSSYLAWYQQKPGQAPRLLIYDASTRATGIPARFSGSGSGTDFTLTISSLEPEDFAVYYCQQRSNWPLTFGGGTKVEIKR
Output: 39000
